test name: NCI Yeast Anticancer Drug Screen. Data for the bub3 strain (AID 167)
condition notes: S. cerevisiae bub3 mutant strain, at 50.0 µM
About 79,000 compounds went through this panel and 15% of them were active in at least one assay; those are over-represented in the sample as a whole. Active and inactive are the calls of the source. No stated cut-off is given here; in the data, active means growth inhibition above about 70%; inactive means the rest.
Outcomes: label 1 = active, label 0 = inactive

1. O=[N+]([O-])c1ccc2c(c1)[n+]([O-])c1[nH]c3ccccc3c1[n+]2[O-] (tested in a mixture with another compound) :: label 1
2. COC([C@@H](OC(=O)c1ccccc1)[C@H](OC(=O)c1ccccc1)C(O)COC(=O)c1ccccc1)n1cc(C)c(=O)[nH]c1=O (some centres undefined) :: label 1
3. CS(=O)c1cc(=O)c2ccccc2s1 (centres undefined) :: label 1
4. CC(C)(C)OC(=O)N[C@H]1CC2(C=C(Cl)C(=O)C(Cl)=C2)OC1=O :: label 1
5. CC1(C)S[C@@H]2[C@H](N3C(=O)c4ccccc4C3=O)CN2[C@H]1NC(=O)N[C@@H]1N2C[C@@H](N3C(=O)c4ccccc4C3=O)[C@H]2SC1(C)C :: label 1
6. CN(C)c1ccc(-c2c(C#N)c(S)n(NS(=O)(=O)c3ccccc3)c(=O)c2C#N)cc1 :: label 0
7. Clc1ccc2ns[s+]c2c1 :: label 1
8. Cc1cc(O)c(NCCN(C)C)c2c(=O)c3ccccc3sc12 :: label 1
9. CC(=O)OCc1cc2ccccc2nc1C(Br)(Br)Br :: label 1

----------
test name: NCI Yeast Anticancer Drug Screen. Data for the sgs1 mgt1 strain (AID 161);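 further: 0% = growth of cultures given vehicle only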
condition notes: S. cerevisiae sgs1 mgt1 strain, at 50.0 µM (retest, dose inferred, filed as 5.0), hits give high values
The panel holds about 79,000 compounds, 15% with a hit somewhere; the sample as a whole holds those more often.
Listed compounds paired with reported growth inhibition
readout name: growth inhibition (%)

1. CSC(=S)n1nc(-c2ccccc2)c(N=Nc2ccccc2[N+](=O)[O-])c1C :: 96
2. C(#Cc1ccccc1)Sc1ccccc1 :: 18
3. CC1(C)CC(=O)C2=C(C1)Nc1ccccc1CC2c1c[nH]c2ccccc12 (stereo unspecified) :: 68
4. COc1ccc(C(=O)c2ccc([N+](=O)[O-])cc2)cc1 :: 0
5. O=[N+]([O-])C12CCCCC1([N+](=O)[O-])CCCC2 (stereo unspecified) :: 33
6. Cc1cccc(Cl)c1NC(=S)Nc1cccc(C(F)(F)F)c1 :: 1

----------
Below, each of the compounds is paired with its reported growth inhibition value.
test name: NCI Yeast Anticancer Drug Screen. Data for the sgs1 mgt1 strain (AID 161);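 further: 0% = growth of cultures given vehicle only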
condition notes: S. cerevisiae sgs1 mgt1 strain, at 50.0 µM, hits give high values
This is part of a sample that, as a whole, favours compounds with a hit. Of some 79,000 tested, about 15% had one in any assay.
readout name: growth inhibition (%)

1) O=C(Cc1nc2ccccc2s1)C(=O)Nc1ccc(Cl)cc1 :: 17.5
2) CN(C)C(=O)/N=c1\ss/c(=N\C(=S)N(C)C)n1-c1ccccc1 :: 72
3) CC(C)(C)C(=O)OC12/C(=N/O)CCCCCC1c1ccccc12 (stereo unspecified) :: 81.2
4) O=C(/C=C/c1ccccc1)CCN1CCC2CCC(C2)C1 (stereo unspecified) :: 76.1
5) COC1CC(C)(NC(C)=O)C2OC(c3ccccc3)OCC2O1 (stereo unspecified) :: 71.9
6) COc1ccc(N(C)Sc2ccccc2)cc1 :: 67.1
